target: T1, human Siglec-7 expressed on human cells (primary monocytes, dendritic cells, macrophages, NK cells, … (human, UniProt Q9Y286 19-467)); test: FACS, human primary macrophages, 10 ug/ml mAb
T1 construct: Endogenous receptor on cells; also called Siglec-7 receptor
T1 sequence (Q9Y286 19-467): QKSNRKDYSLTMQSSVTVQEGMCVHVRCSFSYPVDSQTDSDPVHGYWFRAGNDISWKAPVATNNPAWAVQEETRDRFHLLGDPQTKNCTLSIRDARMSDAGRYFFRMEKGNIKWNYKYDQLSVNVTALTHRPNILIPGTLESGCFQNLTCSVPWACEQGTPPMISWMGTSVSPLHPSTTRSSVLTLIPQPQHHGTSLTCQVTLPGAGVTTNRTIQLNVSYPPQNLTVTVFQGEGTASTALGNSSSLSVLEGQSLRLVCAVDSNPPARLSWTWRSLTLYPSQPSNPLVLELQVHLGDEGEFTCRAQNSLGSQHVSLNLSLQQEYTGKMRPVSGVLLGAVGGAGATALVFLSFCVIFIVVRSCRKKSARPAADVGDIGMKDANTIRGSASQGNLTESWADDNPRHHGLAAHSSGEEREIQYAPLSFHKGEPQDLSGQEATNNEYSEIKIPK
Measured % Positive, listed per entry.
Give your result in % as a bare value.

Example entries begin here.
binder	measurementLabel	recordedResult
anti-Siglec-7 antibody 10B5 (antibody, V domains shown, that light chain holds several Z and differs in its CDRs from S7-10B5.1 / 10B5L1; also called S7-10B5; mAb S7-10B5) VH: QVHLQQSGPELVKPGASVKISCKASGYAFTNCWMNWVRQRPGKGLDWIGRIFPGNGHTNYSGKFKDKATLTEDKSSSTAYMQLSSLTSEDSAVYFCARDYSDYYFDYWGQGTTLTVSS VL: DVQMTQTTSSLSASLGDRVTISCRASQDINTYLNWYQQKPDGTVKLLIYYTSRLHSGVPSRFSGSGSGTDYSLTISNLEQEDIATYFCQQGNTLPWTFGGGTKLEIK	% Positive	99.7
anti-Siglec-7 antibody 2G1 (antibody, V domains shown, Variable domains assembled from FR and CDR entries; the printed VL FR1 looks shortened at its N-terminus; also called 2G11 (misprint in text)) VH: EVKLVESGGTLVKPGGSLKISCAASGFTFSNYDMSWVRQNPEKRLEWVATISSGGDYTYYPDIFKGRFTISRDDAKNALYLQMSSLRSEDTALYYCARHGYGNYDWYFDVWGAGATVTVSS VL: VLTQSPAIMSASPGEKVTMTCSANSSFIYMYWYQQKPGSSPRLLIFDTSNLASGVPIRFSGSGSGTSYSLTISRMEAEDTATYYCQQWSSSPLTFGGGTKLELK	% Positive	99.5

Let us examine a further case.
Enquiry: Output % Positive of anti-Siglec-7 antibody 1E8 (antibody, V domains shown) VH: QVQLQQSGAELVRPGASVKLSCSASGFNIKGSLLHWIKQRPLQGLEWIGWIDPEDGETRFDPKFQDKAFLTADTSSTTAYLQLSSLTSEDTAIYYCARTEYSNPAWFAYWGQGTLVTVSA VL: DIQMTQFPATLSVTPGDRVSLSCRASQSISDYLHWYQHKSHESPRLLIKYASQSISGIPSRFSGSGSGWDFTLSINSVEPEDVGIYYCQKGLNFPLTFGGGTKLEMK
Return: 99.5
